Target: T1, Monkey 4-1BB extracellular region recombinant protein (his-tag) (monkey)
T1 construct: extracellular domain; also called Monkey4-1BB, his-tag
Assay: ELISA, coated monkey 4-1BB-his 200 ng/well; antibody 0.37 µg/ml
Hi there, I'd appreciate the recorded absorbance at 450 nm for every entry that follows.
# respond with the number and nothing more

## Task // returns reported absorbance at 450 nm for input 137-18 VHH-hFc recombinant antibody (Fc fusion, VHH fragment inserted into vector pFclG with human IgG1 Fc tag, expressed in HEK293F; also called CD137-18; not shown: human IgG1 Fc tag of the eukaryotic expression vector pFclG) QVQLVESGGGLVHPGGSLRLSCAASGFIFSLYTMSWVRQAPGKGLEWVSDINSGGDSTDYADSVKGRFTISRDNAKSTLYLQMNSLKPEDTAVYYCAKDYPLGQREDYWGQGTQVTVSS
## Result 0.707

## Task Same for 137-36 VHH-hFc recombinant antibody (Fc fusion, VHH fragment inserted into vector pFclG with human IgG1 Fc tag, expressed in HEK293F; not shown: human IgG1 Fc tag of the eukaryotic expression vector pFclG) QVQLVESGGGLVQTGGSLTLSCVASGRRFEAYTIGWLRQAPGDLREGVGCIFGGTTFTGYDDSVKGRFTISRDTAKNTVYLRMNNLTSEDTATYYCAAEGRPGQIKGQHGCLTPSWYNYKGQGTQVTVSS
## Result 0.276
